These measurements were taken from patent US20220397564A1.

- System: hiPSC-based cardiac organoids
endpoint: height

>>> test_result("CC1(C)S[C@@H]2[C@H](NC(=O)[C@H](N)c3ccc(O)cc3)C(=O)N2[C@H]1C(=O)O [Amoxicillin]")
"smaller"
>>> test_result("O=C1NC(=O)C(c2ccccc2)(c2ccccc2)N1 [Phenytoin]")
"smaller"

###

- System: zebrafish embryos
- experimental.context: zebrafish, in vivo
endpoint: developmental toxicity (cardiac looping)

>>> test_result("O=C1NC(=O)C(c2ccccc2)(c2ccccc2)N1")
"mild embryotoxic effects"
>>> test_result("CO[C@H]1/C=C/O[C@@]2(C)Oc3c(C)c(O)c4c(O)c(c(/C=N/N5CCN(C)CC5)c(O)c4c3C2=O)NC(=O)/C(C)=C\\C=C\\[C@H](C)[C@H](O)[C@@H](C)[C@@H](O)[C@@H](C)[C@H](OC(C)=O)[C@@H]1C")
"mild embryotoxic effects"
